- target_system: Cytochrome P450 1A2 (Homo sapiens)
- experiment: p450-cyp1a2 (AID 410)
- condition_notes: recombinant CYP1A2, luciferin-ME demethylation, luminescence; series mostly up to 57 µM
Inconclusive results are not listed. Calls of active or inactive are those of the source. The call rests on the fitted dose curve.
Select the matching outcome among active, inactive

In this assay, the call recorded for CN1Cc2c(C(=O)OC(C)(C)C)ncn2-c2ccsc2C1=O was what?
active

In this assay, the call recorded for CC(C)NC[C@@H](O)COc1ccccc1-n1cccc1 was what?
active

In this assay, the call recorded for N[C@H](C(=O)O)c1nn[nH]n1 was what?
inactive

In this assay, the call recorded for C[C@](O)(C(=O)Nc1ccc(S(=O)(=O)c2ccccc2)cc1)C(F)(F)F was what?
active

In this assay, the call recorded for COc1ccccc1NC(=O)Nc1nc(-c2cccnc2)nc2ccccc12 was what?
active

In this assay, the call recorded for N[C@H](C(=O)O)[C@@H]1C[C@@H]1C(=O)O was what?
inactive

In this assay, the call recorded for CCCCN1CCC(CCC(=O)c2cc(Cl)c(N)cc2OC)CC1 was what?
inactive

In this assay, the call recorded for CCCCCCCCCCCCC/C=C\[C@@H](O)[C@@H](N)CO was what?
active

In this assay, the call recorded for C1=C(CN2CCOCC2)COc2c1cccc2OC[C@@H]1CNCCO1 was what?
active

In this assay, the call recorded for COC(=O)C1=C(C)NC(C)=C([N+](=O)[O-])[C@@H]1c1ccccc1C(F)(F)F was what?
active

In this assay, the call recorded for COc1cc2nc(N3CCN(C(=O)[C@H]4CCCO4)CC3)nc(N)c2cc1OC was what?
inactive

In this assay, the call recorded for c1ccc(N2CCN(CCCOc3ccc4c(c3)OCO4)CC2)cc1 was what?
active

In this assay, the call recorded for C#CCCCCCCCCCCCCCCCC(=O)O was what?
active

In this assay, the call recorded for N[C@H](Cn1ccc(=O)n(Cc2ccccc2C(=O)O)c1=O)C(=O)O was what?
inactive

In this assay, the call recorded for NCCNS(=O)(=O)c1cccc2cnccc12 was what?
inactive

In this assay, the call recorded for CC(=O)N[C@@H](C(=O)O)C(C)(C)SN=O was what?
inactive

In this assay, the call recorded for CN1CCN(C2=Cc3ccccc3Oc3ccc(Cl)cc32)CC1 was what?
active

In this assay, the call recorded for CCCn1c(=O)[nH]c2nc(-c3ccc(S(=O)(=O)O)cc3)[nH]c2c1=O was what?
inactive

In this assay, the call recorded for CC(=O)NCCc1c(Cc2ccccc2)[nH]c2ccccc12 was what?
active

In this assay, the call recorded for CC[N+](C)(CC)CCC[n+]1c(-c2ccccc2)c2cc(N)ccc2c2ccc(N)cc21 was what?
active

In this assay, the call recorded for COC(=O)/C=C\c1cc(O)ccc1O was what?
active

In this assay, the call recorded for CCCCCCCCC(=O)NCc1cc(OC)c(O)cc1I was what?
active

In this assay, the call recorded for C=CC(C)(C)c1[nH]c2ccccc2c1C1=C(O)C(=O)C(c2c[nH]c3c(CC=C(C)C)cccc23)=C(O)C1=O was what?
active
